Hello, the source for this data is paper PMC9490041, in case you need it.

# assayedTarget: PSG (PSD-95)
# assayComment: fluorescence polarisation; displacement of 5 nM FITC-15 AA CRIPT from PDZ3 or a PSG variant by unlabelled acetylated peptide (2-fold series), room temperature, technical triplicates; Ki calculated from IC50 (Nikolovska-Coleska); buffer: methods 50 mM sodium phosphate pH 7.45, 21 mM KCl, 0.1% Tween 20, 1 mM TCEP; legend of Figure 2: 50 mM Tris, 100 mM NaCl, 1 mM TCEP, 0.1% Tween 20
pKi: −log10 of the molar value. Ends that are not written are not given here.
measurementKind: pKi

[[record]]
binder = "Ac-YDKPLSKKHAHSVNF"
measurementkind = "pKi"
endpointvalue = 3.06

[[record]]
binder = "Ac-YPPSSPTLSVSSTSL"
measurementkind = "pKi"
endpointvalue = 3.17

[[record]]
binder = "Ac-YSRQHSKLLDFDDVL"
measurementkind = "pKi"
endpointvalue = 3.23

[[record]]
binder = "Ac-YLTGAPLATSDETSI"
measurementkind = "pKi"
endpointvalue = 3.13

